Source: the Immune Epitope Database (IEDB)

molecular target: HLA-B*39:01; experiment: IEDB peptide-MHC binding, purified MHC/direct/fluorescence; filed as Kd, often an IC50 or EC50 that approximates it; bounds were set here for any values at or beyond the usual limits of such assays; settings: source organism: Encephalitozoon cuniculi GB-M1
pKd: −log10 of the molar value.
Measurement Label: pKd

- Biopolymer Sequence: "SPLPITLKY"
  Assayed Target: "HLA-B*39:01"
  Experimental Value: "≤ 4.70"

###

molecular target: HLA-A*26:01; experiment: IEDB peptide-MHC binding, purified MHC/competitive/radioactivity; filed as Kd, often an IC50 or EC50 that approximates it; bounds were set here for any values at or beyond the usual limits of such assays; settings: source organism: Dengue virus 1 Brazil/97-11/1997
Measurement Label: Kd

- Biopolymer Sequence: "MTTEDMLSV"
  Measurement Label: "Kd"
  Experimental Value: "1.26 µM"

###

molecular target: HLA-A*03:01; assay: IEDB peptide-MHC binding, purified MHC/direct/fluorescence; filed as Kd, often an IC50 or EC50 that approximates it; bounds were set here for any values at or beyond the usual limits of such assays; conditions: source organism: Influenza A virus (A/Wisconsin/4755/1994(H1N1))
pKd: −log10 of the molar value.

- Biopolymer Sequence: "YRYTYRCHR"
  Assayed Target: "HLA-A*03:01"
  pKd: "≤ 4.70"

###

molecular target: HLA-A*02:03; assay: IEDB peptide-MHC binding, purified MHC/competitive/fluorescence; filed as Kd, often an IC50 or EC50 that approximates it; bounds were set here for any values at or beyond the usual limits of such assays; conditions: source organism: Encephalitozoon cuniculi GB-M1
Measurement Label: Kd

- Biopolymer Sequence: "GVYGGLCLA"
  Experimental Value: "1.6 nM"

###

target: HLA-A*02:01; assay: IEDB peptide-MHC binding, purified MHC/direct/fluorescence; filed as Kd, often an IC50 or EC50 that approximates it; bounds were set here for any values at or beyond the usual limits of such assays; conditions: source organism: Burkholderia mallei

- Biopolymer Sequence: "IQRRGAQFQ"
  Assayed Target: "HLA-A*02:01"
  Kd: "≥ 20 µM"

###

target: HLA-A*31:01; assay: IEDB peptide-MHC binding, purified MHC/competitive/radioactivity; filed as Kd, often an IC50 or EC50 that approximates it; bounds were set here for any values at or beyond the usual limits of such assays; conditions: source organism: Vaccinia virus WR
pKd: −log10 of the molar value.
Would you please tag the item true when its pKd is 6 or above, and false when it is below?

- Biopolymer Sequence: "IMLPESDLDK"
  Category: "true"
- Biopolymer Sequence: "DIVNEHDIKY"
  Category: "false"
- Biopolymer Sequence: "GVSYEVFDDY"
  Category: "false"
- Biopolymer Sequence: "YTIERIFNAK"
  Category: "false"
- Biopolymer Sequence: "ELESLSKRER"
  Category: "false"
- Biopolymer Sequence: "VLDIISSKQY"
  Category: "true"
- Biopolymer Sequence: "PSLEYGANY"
  Category: "false"
- Biopolymer Sequence: "AIITPVVFYR"
  Category: "true"
- Biopolymer Sequence: "SVDIETAIR"
  Category: "false"
- Biopolymer Sequence: "AVRAFLLRHY"
  Category: "false"
- Biopolymer Sequence: "DFSKSTSPTR"
  Category: "true"
- Biopolymer Sequence: "NQNLIPSTVK"
  Category: "false"
- Biopolymer Sequence: "KLFKKTDFK"
  Category: "true"
- Biopolymer Sequence: "AFVRFSTDK"
  Category: "false"
- Biopolymer Sequence: "ISIYSRPKIK"
  Category: "false"
- Biopolymer Sequence: "KMSTDNAVY"
  Category: "false"
- Biopolymer Sequence: "ELQSVLVTTY"
  Category: "false"
- Biopolymer Sequence: "DVLEIINDK"
  Category: "false"
- Biopolymer Sequence: "VVVKDDPDHY"
  Category: "false"
- Biopolymer Sequence: "WIKNLETYTR"
  Category: "true"
- Biopolymer Sequence: "KAFKNNLSR"
  Category: "true"
- Biopolymer Sequence: "NIRLTDTEYR"
  Category: "true"
- Biopolymer Sequence: "STVKTNLYMK"
  Category: "true"
- Biopolymer Sequence: "NTILLSDKGK"
  Category: "false"
- Biopolymer Sequence: "NAVYQCRKLR"
  Category: "true"
- Biopolymer Sequence: "ALEVLMSPCR"
  Category: "true"
- Biopolymer Sequence: "SSGFYFEIAR"
  Category: "true"
- Biopolymer Sequence: "FFVFIHMVR"
  Category: "true"
- Biopolymer Sequence: "LLKYAGLTIK"
  Category: "false"
- Biopolymer Sequence: "YTHGIVFDGK"
  Category: "true"
- Biopolymer Sequence: "LFDFVNEKY"
  Category: "false"
- Biopolymer Sequence: "LFKNVRLLK"
  Category: "true"
- Biopolymer Sequence: "FITKEIKNR"
  Category: "false"
- Biopolymer Sequence: "FMRDWNSKY"
  Category: "false"
- Biopolymer Sequence: "KFLELKRGIY"
  Category: "true"
- Biopolymer Sequence: "GFCIPSRSK"
  Category: "true"
- Biopolymer Sequence: "LIPVSEVLLK"
  Category: "false"
- Biopolymer Sequence: "PMPYMISTY"
  Category: "false"
- Biopolymer Sequence: "TLVPVLEKK"
  Category: "true"
- Biopolymer Sequence: "ASTTENAAY"
  Category: "false"
- Biopolymer Sequence: "IIKHIYEQY"
  Category: "false"
- Biopolymer Sequence: "EVGSIRCVK"
  Category: "false"
- Biopolymer Sequence: "RQQLEDIFMR"
  Category: "false"
- Biopolymer Sequence: "ITTLLNETAK"
  Category: "false"
- Biopolymer Sequence: "YMVTDKTAY"
  Category: "false"
- Biopolymer Sequence: "FSAGAGVLDK"
  Category: "true"
- Biopolymer Sequence: "FIKPVSDLY"
  Category: "true"
- Biopolymer Sequence: "KSLLLLNTR"
  Category: "true"
- Biopolymer Sequence: "LMTLDDLAIK"
  Category: "false"
- Biopolymer Sequence: "PVDTEFINK"
  Category: "false"
- Biopolymer Sequence: "KLCKNHAEK"
  Category: "true"
- Biopolymer Sequence: "CICYGSYSLY"
  Category: "false"
- Biopolymer Sequence: "NSSIISLFY"
  Category: "false"
- Biopolymer Sequence: "TIERIFNAK"
  Category: "true"
- Biopolymer Sequence: "VLMHPDFCK"
  Category: "true"
- Biopolymer Sequence: "DISKLTNFK"
  Category: "false"
- Biopolymer Sequence: "AIITPVVFY"
  Category: "false"
- Biopolymer Sequence: "SILDRIDTR"
  Category: "true"
- Biopolymer Sequence: "SIKIKQDVR"
  Category: "true"
- Biopolymer Sequence: "NTVVRDFENY"
  Category: "false"
- Biopolymer Sequence: "EINEWLSSK"
  Category: "false"
- Biopolymer Sequence: "MLPESDLDK"
  Category: "false"
- Biopolymer Sequence: "HSNLTETFR"
  Category: "true"
- Biopolymer Sequence: "QSYRQYRNY"
  Category: "false"
- Biopolymer Sequence: "NFSIIELPY"
  Category: "false"
- Biopolymer Sequence: "AATIQTPTK"
  Category: "true"
- Biopolymer Sequence: "QALNSVANR"
  Category: "true"
- Biopolymer Sequence: "AVNTPVSMTY"
  Category: "false"
- Biopolymer Sequence: "CIPSRSKMLK"
  Category: "true"
- Biopolymer Sequence: "PLHKYCVNLY"
  Category: "false"
- Biopolymer Sequence: "DLTALLSCIR"
  Category: "true"
- Biopolymer Sequence: "ASLKNTISK"
  Category: "false"
- Biopolymer Sequence: "ELALTDVEKR"
  Category: "false"

###

molecular target: HLA-A*26:01; assay: IEDB peptide-MHC binding, purified MHC/competitive/fluorescence; filed as Kd, often an IC50 or EC50 that approximates it; bounds were set here for any values at or beyond the usual limits of such assays; conditions: source organism: Toxoplasma gondii

- Biopolymer Sequence: "VSSHKGWAK"
  Kd: "≥ 20 µM"

###

molecular target: HLA-B*46:01; assay: IEDB peptide-MHC binding, purified MHC/competitive/fluorescence; filed as Kd, often an IC50 or EC50 that approximates it; bounds were set here for any values at or beyond the usual limits of such assays; details: source organism: Araucaria virus

- Biopolymer Sequence: "ELRQLAQSL"
  Kd: "≥ 20 µM"

###

molecular target: HLA-B*18:01; test: IEDB peptide-MHC binding, purified MHC/direct/fluorescence; filed as Kd, often an IC50 or EC50 that approximates it; bounds were set here for any values at or beyond the usual limits of such assays; conditions: source organism: Mycobacterium tuberculosis variant bovis

- Biopolymer Sequence: "TPREAPYEL"
  Kd: "≥ 20 µM"

###

target: HLA-B*35:01; test: IEDB peptide-MHC binding, purified MHC/competitive/fluorescence; filed as Kd, often an IC50 or EC50 that approximates it; bounds were set here for any values at or beyond the usual limits of such assays; details: source organism: Mycobacterium tuberculosis C
Measurement Label: Kd

- Biopolymer Sequence: "QATAQAAAY"
  Experimental Value: "0.0145 µM"
